Where these numbers come from: ChEMBL document CHEMBL3885881

- Species on record: Rattus norvegicus
- protocol: DrugMatrix - Regimen: Daily Repeat
- Type: toxicity, organism-based, Sprague-Dawley
- Set-up: regimen Daily Repeat, gender Male, age 6-8 weeks
- conditionDetails: in vivo, po, 0 mg/kg, 72 h, tissue Blood, route oral GAVAGE, dose level Control, time 3 day, vehicle 100 % WATER
compounds and their reported MEAN CORPUSCULAR HEMOGLOBIN CONCENTRATION
Supply the numeric figure in G/DL, leaving out any unit text.

Examples from the recorded data:
Given item "CCOC(N)=O" , the value recorded as its MEAN CORPUSCULAR HEMOGLOBIN CONCENTRATION is 40.65

Entry "CNS(=O)(=O)Cc1ccc2[nH]cc(CCN(C)C)c2c1" — recorded MEAN CORPUSCULAR HEMOGLOBIN CONCENTRATION = 39.15

// "CCCc1nn(C)c2c(=O)[nH]c(-c3cc(S(=O)(=O)N4CCN(C)CC4)ccc3OCC)nc12" : MEAN CORPUSCULAR HEMOGLOBIN CONCENTRATION value = 39.03

MEAN CORPUSCULAR HEMOGLOBIN CONCENTRATION for O=P1(N(CCCl)CCCl)NCCCO1 (stereo not drawn) [CYCLOPHOSPHAMIDE ANHYDROUS] is 39.13

For "O=C(O)c1cccnc1" the compound record lists MEAN CORPUSCULAR HEMOGLOBIN CONCENTRATION as 40.08

So for "O=C(O)c1cc(=O)c2c(OCC(O)COc3cccc4oc(C(=O)O)cc(=O)c34)cccc2o1" , the logged MEAN CORPUSCULAR HEMOGLOBIN CONCENTRATION turned out to be 38.97

# MEAN CORPUSCULAR HEMOGLOBIN CONCENTRATION of CN1C2CCCC1CC(NC(=O)c1nn(C)c3ccccc13)C2 (stereo not drawn) = 38.63

// switching to the query compound
Lab note: "CC[C@H]1OC(=O)[C@H](C)[C@@H](O[C@H]2C[C@@](C)(OC)[C@@H](O)[C@H](C)O2)[C@H](C)[C@@H](O[C@@H]2O[C@H](C)C[C@H](N(C)C)[C@H]2O)[C@](C)(OC)C[C@@H](C)C(=O)[C@H](C)[C@@H](O)[C@]1(C)O" gave MEAN CORPUSCULAR HEMOGLOBIN CONCENTRATION of 38.98

###

- Species on record: Rattus norvegicus
- protocol: DrugMatrix - Regimen: Daily Repeat
- Format: toxicity, organism-based, Sprague-Dawley
- Set-up: regimen Daily Repeat, gender Male, age 6-8 weeks
- conditionDetails: in vivo, po, 0 mg/kg, 72 h, tissue Blood, route oral GAVAGE, dose level Control, time 3 day, […]
MEAN CORPUSCULAR VOLUME values for the molecules below.

response.value for "COc1ncnc(NS(=O)(=O)c2ccc(N)cc2)c1OC" (field: MEAN CORPUSCULAR VOLUME) = 63.3 fL

Others:
The molecule listed as "CC(C)Cc1ccc(CC(=O)O)cc1" has a reported MEAN CORPUSCULAR VOLUME of 60.4 fL

# molecule CC(CCc1ccc(O)cc1)NCCc1ccc(O)c(O)c1 (stereo not drawn) ; its MEAN CORPUSCULAR VOLUME = 68.57 fL

###

Quick reference for CREATINE PHOSPHOKINASE among some compounds
- Species on record: Rattus norvegicus
- protocol: DrugMatrix - Regimen: Daily Repeat
- Format: toxicity, organism-based, Sprague-Dawley
- Parameters: regimen Daily Repeat, gender Male, age 6-8 weeks
- conditionDetails: in vivo, po, 100 mg/kg, 72 h, tissue Plasma, route oral GAVAGE, dose level Low, time 3 day, vehicle .5 % CMC
Give just the number in u/L; leave the unit off.

Lookup result for Nc1nc2c(c(=O)[nH]1)N(C=O)C(CNc1ccc(C(=O)N[C@@H](CCC(=O)O)C(=O)O)cc1)CN2 (some centres undefined) ; measured CREATINE PHOSPHOKINASE: 289.67

So, "CC=Cc1ccc(O)c(OC)c1" ? Its CREATINE PHOSPHOKINASE was 312.33

The value of CREATINE PHOSPHOKINASE measured for the compound "C#C[C@]1(O)CC[C@H]2[C@@H]3CCC4=Cc5oncc5C[C@]4(C)[C@H]3CC[C@@]21C" turned out to be 401.33

Next compound, please.
The compound "CC[C@]1(O)CC[C@H]2[C@@H]3CCC4=CCCC[C@@H]4[C@H]3CC[C@@]21C" showed CREATINE PHOSPHOKINASE equal to 235.33

###

- Organism: Rattus norvegicus
- protocol: DrugMatrix - Regimen: Daily Repeat
- Type: toxicity, organism-based, Sprague-Dawley
- Parameters: regimen Daily Repeat, gender Male, age 6-8 weeks
- conditionDetails: in vivo, po, 0 mg/kg, 72 h, tissue Plasma, route oral GAVAGE, dose level Control, time 3 day, vehicle 100 % SALINE
endpointName: CREATININE (mg/dL)
# value in mg/dL; strip the unit string

For record "Oc1ccccc1O" the listed CREATININE is 0.21

More entries:
Value of measured CREATININE for the entry Cc1cc(CC(=O)O)n(C)c1C(=O)c1ccc(Cl)cc1 [ZOMEPIRAC] : 0.21

The measured CREATININE associated with "CC(=O)OCC(CCn1cnc2cnc(N)nc21)COC(C)=O" reads 0.2

Record "CCCc1nn(C)c2c(=O)[nH]c(-c3cc(S(=O)(=O)N4CCN(C)CC4)ccc3OCC)nc12" . Reported CREATININE: 0.2

###

Some compounds, each annotated with its measured SODIUM.
- Species: Rattus norvegicus
- protocol: DrugMatrix - Regimen: Daily Repeat
- Format: toxicity, organism-based, Sprague-Dawley
- Set-up: regimen Daily Repeat, gender Male, age 6-8 weeks
- conditionDetails: in vivo, po, 0 mg/kg, 72 h, tissue Plasma, route oral GAVAGE, dose level Control, time 3 day, vehicle 100 % SALINE

For reference, reported SODIUM for "CC(=O)OCC(CCn1cnc2cnc(N)nc21)COC(C)=O" stands at 142 MEQ/L

SODIUM recorded for this compound, Cc1cc(CC(=O)O)n(C)c1C(=O)c1ccc(Cl)cc1 [ZOMEPIRAC] , is 141.68 MEQ/L

Short answer for "CCCc1nn(C)c2c(=O)[nH]c(-c3cc(S(=O)(=O)N4CCN(C)CC4)ccc3OCC)nc12" : SODIUM was 142 MEQ/L

Now consider the entry below.
SODIUM measured on "Oc1ccccc1O" = 141.68 MEQ/L

###

# CHLORIDE per entry
- Organism: Rattus norvegicus
- protocol: DrugMatrix - Regimen: Daily Repeat
- Format: toxicity, organism-based, Sprague-Dawley
- Set-up: regimen Daily Repeat, gender Male, age 6-8 weeks
- conditionDetails: in vivo, po, 1500 mg/kg, 72 h, tissue Plasma, route oral GAVAGE, dose level High, time 3 day, vehicle .5 % CMC
Dear colleague, please return just the value in MEQ/L, with no unit written.

# CHLORIDE (molecule: Nc1nc2c(c(=O)[nH]1)N(C=O)C(CNc1ccc(C(=O)N[C@@H](CCC(=O)O)C(=O)O)cc1)CN2 (stereo not given in full) ) is 102

Note to self: CHLORIDE recorded for "O=c1cc(-c2ccccc2)oc2ccc3ccccc3c12" was 103.33

New cases:
Recorded CHLORIDE (molecule "C[C@@H](O)[C@H]1C(=O)N2C(C(=O)O)=C(S[C@@H]3CN[C@H](C(=O)N(C)C)C3)[C@H](C)[C@H]12" ): 99.67

Given item "CC(C)(Sc1cc(C(C)(C)C)c(O)c(C(C)(C)C)c1)Sc1cc(C(C)(C)C)c(O)c(C(C)(C)C)c1" , the value recorded as its CHLORIDE is 100

So, "CCOC(=O)[C@H](CCc1ccccc1)N[C@@H](C)C(=O)N1CCC[C@H]1C(=O)O" ? Its CHLORIDE was 101.67

###

Measured CHLORIDE accompanies every entry in the list below.
- Species on record: Rattus norvegicus
- protocol: DrugMatrix - Regimen: Daily Repeat
- Assay type: toxicity, organism-based, Sprague-Dawley
- Set-up: regimen Daily Repeat, gender Male, age 6-8 weeks
- conditionDetails: in vivo, po, 0 mg/kg, 72 h, tissue Plasma, route oral GAVAGE, dose level Control, time 3 day, […]
Report as a plain number; the unit MEQ/L is understood.

Measured CHLORIDE of COc1ncnc(NS(=O)(=O)c2ccc(N)cc2)c1OC [SULFADOXINE] : 97.67

Summary for this compound, CC(=O)Nc1nnc(S(N)(=O)=O)s1 [ACETAZOLAMIDE] : CHLORIDE is 97.67

Short answer for CCn1cc(C(=O)O)c(=O)c2cc(F)c(N3CCNCC3)nc21 [ENOXACIN] : CHLORIDE was 100.33

Quick note, CHLORIDE for NC[C@@H]1O[C@H](O[C@H]2[C@@H](O)[C@H](O[C@@H]3[C@@H](O)[C@H](N)C[C@H](N)[C@H]3O[C@H]3O[C@H](CN)[C@@H](O)[C@H](O)[C@H]3N)O[C@@H]2CO)[C@H](N)[C@@H](O)[C@@H]1O [FRAMYCETIN] landed at 98.33

Briefly, CHLORIDE measured for CC(C)Cc1ccc(CC(=O)O)cc1 [IBUFENAC] : 101.67

Continuing:
CHLORIDE recorded for this compound, C#C[C@]1(O)CC[C@H]2[C@@H]3CCc4cc(O)ccc4[C@H]3CC[C@@]21C [ETHINYL ESTRADIOL] , is 100.33

response.value for CC[C@H](C)C(=O)O[C@H]1C[C@H](O)C=C2C=C[C@H](C)[C@H](CC[C@@H](O)C[C@@H](O)CC(=O)O)[C@H]21 [PRAVASTATIN] (field: CHLORIDE) = 100.5

CHLORIDE reading for CC(CCc1ccc(O)cc1)NCCc1ccc(O)c(O)c1 (stereo unspecified) [DOBUTAMINE] : 102

Reported CHLORIDE ( CC[C@H](C)C(=O)O[C@H]1C[C@@H](C)C=C2C=C[C@H](C)[C@H](CC[C@@H]3C[C@@H](O)CC(=O)O3)[C@H]21 [LOVASTATIN] ) = 99

compound CN(CCOc1ccc(CC2SC(=O)NC2=O)cc1)c1ccccn1 (stereo unspecified) [ROSIGLITAZONE] , CHLORIDE observed: 100.5

The recorded CHLORIDE for OCCN1CCN(CCCN2c3ccccc3Sc3ccc(C(F)(F)F)cc32)CC1 [FLUPHENAZINE] is 99.17
